biological target: human CD33 G249A (human, UniProt P20138 18-364); assay: alanine scan, flow cytometry, HEK293-T;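 note: antibody binding to each alanine-substituted CD33 mutant expressed transiently in HEK293-T, read as fluorescence minus background, mean of duplicates, relative to wild-type CD33 set as 100%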
Sequence (P20138 18-364 G249A limits assumed): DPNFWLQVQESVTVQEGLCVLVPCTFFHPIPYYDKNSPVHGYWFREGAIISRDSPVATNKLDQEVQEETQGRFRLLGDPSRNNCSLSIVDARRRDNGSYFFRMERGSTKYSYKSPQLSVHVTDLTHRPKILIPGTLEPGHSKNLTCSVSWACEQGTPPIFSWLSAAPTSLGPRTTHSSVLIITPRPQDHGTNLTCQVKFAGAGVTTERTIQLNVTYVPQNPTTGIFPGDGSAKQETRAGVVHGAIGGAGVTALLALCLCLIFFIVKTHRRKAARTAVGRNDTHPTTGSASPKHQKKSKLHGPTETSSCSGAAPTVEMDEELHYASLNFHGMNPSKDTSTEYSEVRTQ
MEASUREMENT NAME: Mean % WT Binding (% WT binding)
Provide the reading as a plain figure in % WT binding.

# get_value(readout='Mean % WT Binding', item= Refmab #1 (antibody, V domains shown, The alanine scan used IgG or Fab; also called hP67.6) VH: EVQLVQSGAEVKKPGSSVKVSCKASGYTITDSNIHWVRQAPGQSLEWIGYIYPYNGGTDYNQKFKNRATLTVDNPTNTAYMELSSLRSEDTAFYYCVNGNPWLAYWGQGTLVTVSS VL: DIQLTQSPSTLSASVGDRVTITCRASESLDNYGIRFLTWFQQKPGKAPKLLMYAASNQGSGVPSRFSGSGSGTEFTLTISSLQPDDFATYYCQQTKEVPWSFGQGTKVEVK )
89.2

Item Refmab #3 (antibody, V domains shown, The alanine scan used IgG or Fab) VH: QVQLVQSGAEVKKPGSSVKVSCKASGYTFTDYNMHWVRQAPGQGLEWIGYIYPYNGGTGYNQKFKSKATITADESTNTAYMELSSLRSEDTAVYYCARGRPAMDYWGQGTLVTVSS VL: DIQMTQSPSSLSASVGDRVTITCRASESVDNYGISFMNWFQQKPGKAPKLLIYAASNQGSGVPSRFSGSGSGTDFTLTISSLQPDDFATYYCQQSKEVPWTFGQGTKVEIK has what recorded Mean % WT Binding?
132

Given the entry Refmab #2 (antibody, V domains shown, The alanine scan used IgG or Fab) VH: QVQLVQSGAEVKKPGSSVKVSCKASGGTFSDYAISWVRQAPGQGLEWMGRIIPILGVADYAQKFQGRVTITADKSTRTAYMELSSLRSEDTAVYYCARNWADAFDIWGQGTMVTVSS VL: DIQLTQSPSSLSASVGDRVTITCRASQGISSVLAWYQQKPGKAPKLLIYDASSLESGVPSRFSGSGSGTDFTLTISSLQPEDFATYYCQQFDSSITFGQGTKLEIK , report its measured Mean % WT Binding.
127

Return reported Mean % WT Binding; argument: Refmab #4 (antibody, V domains shown, The alanine scan used IgG or Fab) VH: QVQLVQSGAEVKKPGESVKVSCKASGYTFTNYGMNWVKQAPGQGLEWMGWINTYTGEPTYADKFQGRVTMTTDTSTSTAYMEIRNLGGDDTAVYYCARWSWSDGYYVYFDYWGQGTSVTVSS VL: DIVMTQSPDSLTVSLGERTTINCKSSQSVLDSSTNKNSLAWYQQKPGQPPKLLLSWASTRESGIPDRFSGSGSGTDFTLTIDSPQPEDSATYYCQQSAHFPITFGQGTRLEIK
111
